Consider the following binders; for each one, report its pKd.
# Test system: receptor binding domain (RBD) of SARS-CoV-2 wildtype (2019-nCoV) (SARS-CoV-2), P0DTC2
Worth noting: pKd values are minus log10 of concentrations stated in mol/L.

Input: Please look up its pKd: EEQCKTFLDKFNHEAEDLFYQSS (modifications not checked) [p4C4]
Output: 5.89

Input: Please look up its pKd: EEQAKTFLDKFNHECEDLCYQSS (modifications not checked) [p4C15, 19]
Output: 6.62

Input: Please look up its pKd: EEQAKTFLDCFNHEAEDLFYQSS (modifications not checked) [p4C10]
Output: 6.48

Input: Please look up its pKd: ECQAKTFLDKFNHEAEDLFYQSS (modifications not checked) [p4C2]
Output: 7.47

Input: Please look up its pKd: EEQCKTFCDKFNHEAEDLFYQSS (modifications not checked) [p4C4, 8]
Output: 7.23

Input: Please look up its pKd: EEQAKTFLDKFCHEAEDLFYQSS (modifications not checked) [p4C12]
Output: 5.69

Input: Please look up its pKd: EEQAKTFLDKCNHECEDLFYQSS (modifications not checked) [p4C11, 15]
Output: 7.17

Input: Please look up its pKd: EEQAKTFCDKFNHEAEDLFYQSS (modifications not checked) [p4C8]
Output: 6.55

Input: Please look up its pKd: EEQAKTFLDKFNHEAEDCFYQCS (modifications not checked) [p4C18, 22]
Output: 6.66

Input: Please look up its pKd: EEQCKTFCDKFNHEAEDCFYQCS (modifications not checked) [p4C4, 8, 18, 22]
Output: 6.40

Input: Please look up its pKd: EECAKTFLDKFNHEAEDLFYQSS (modifications not checked) [p4C3]
Output: 7.38

Input: Please look up its pKd: EEQACTFLDKFNHEAEDLFYQSS (modifications not checked) [p4C5]
Output: 5.67

Input: Please look up its pKd: EEQAKTCLDKFNHEAEDLFYQSS (modifications not checked) [p4C7]
Output: 5.71

Input: Please look up its pKd: EEQAKTFCDKFCHEAEDLFYQSS (modifications not checked) [p4C8, 12]
Output: 7.33

Input: Please look up its pKd: EEQAKTFLDKFNCEAEDLFYQSS (modifications not checked) [p4C13]
Output: 7.55

Input: Please look up its pKd: EEQAKTFLDKCNHEAEDLFYQSS (modifications not checked) [p4C11]
Output: 7.92

Input: Please look up its pKd: EEQAKTFLCKFNHEAEDLFYQSS (modifications not checked) [p4C9]
Output: 5.49
